- SYSTEM_NAME: T1, Soluble CTLA-4-Ig (extracellular domain of human CTLA-4 fused to the Fc portion of human IgG1) (human, UniProt P16410 36-161, FITC-conjugated in the FACS binding assays)
- T1 construct: extracellular domain; bought from R&D Systems; also called sCTLA-4-Ig; CTLA-4-Ig Fc; not shown: Fc portion of human IgG1
- TEST_DETAILS: competitive FACS on transfected cells, FITC-sCTLA-4-Ig with biotin-sCD28-Ig; grade 0-2 of CTLA-4/CD28 ratio vs WT hB7-1
MEASURED_QUANTITY: Binding Score
Answer with a number only.

See these solved cases before continuing.
[
  {
    "BINDER": "Round 2 CTLA4BP 2x2-f1 (ligand) VIHVTKEVKEVATLSCGHNVSVEELAQTRIHWQKEKKMVLTMMSGDMNIWPEYKNRTIFDITNNLSIVILALRLSDEGTYECVVLKYEKDAFKREHLAEVTLSVKADFPTPSISDFEIPTSNIRRIICSTSGGFPEPHLFWLENGEELNAINTTASQDPETELYTVSSKLDFNMTTNRSFVCLIKYGHLRVNQTFNWNTPKQEHFPDNLLPSWAITLISVNGIFVICCLTYCFAPRCRERRRNERLRRESVRPV",
    "READOUT_VALUE": 1
  },
  {
    "BINDER": "Round 2 CTLA4BP-5x2-2g (ligand) VIHVTKEVKEVATLSCGHNVSVEELAQTRIHWQKEKKMVLTMMSGDMNIWPEYKNRTIFDITNNLSIVILALRPSDEGTYECVVLKYEKDAFKREHLAEVMLSVKADFPTPSITDFEIPTSNIRRIICSTSGGFPEPHLSWLENGEELNAINTTVSQDPETELYTVSSKLDFNMTTNHSFMCLIKYGHLRVNQTFNWNTPKQEHFPDNLLPSWAITLISVNGIFVICCLTYRFAPRCRERKSNERLRRESVRPV",
    "READOUT_VALUE": 2
  },
  {
    "BINDER": "Round 1 CTLA4BP-11 (ligand, also called R1-11; R1 CTLA-4BP-11) VIHMTKEVKEVATLSCGHNVSVEELAQTRIYWQKEKKMVLTMMSGDMNIWPEYKNRTIFDITNNLSIVILALRPSDEGTYECVVLKYEKDAFKREHLAEVMLSVKADFPTPSITDFEIPPSNIRRIICSTSGGFPEPHLFWLENGEELNAINTTVSQDPETELYAVSSKLDFNMTTNHSFMCLIKYGHLRVNQTFNWNTTKQEHFPDNLLPSWAITLISVNGIFVICCLTHCFAPRCRERRRNERLRRESVHPV",
    "READOUT_VALUE": 1
  },
  {
    "BINDER": "Round 2 CTLA4 A-G8-1 (ligand) ITPKSVTKRVKETVMLSCDYNTSTEELTSLRIYWQKDSKMVLAILPGKVQVWPEYKNRTITDMNDNPRIVILALPLSDSGTYTCVIQKPDLKGAYKLEHLTSVRLMIRADFPVPTINDLGNPSPNIRRLICSTSGGFPRPHLYWLENGEELNATNTTLSQDPETKLYMISSELDFNMTSNHSFLCLVKYGDLTVSQTFYWQESKPTPSANQHLTWTIIIPVSAFGISVIIAVILTCLTCRNAAIRRQRRENEVEMQSCSQSP",
    "READOUT_VALUE": 1
  }
]

Note to self: Binding Score recorded for Round 2 CTLA4BP 2x2-f12 (ligand) VIHVTKEVKEVATLSCGHNVSVEELAQTRIHWQKEKKMVLTMMSGDMNIWPEYKNRTIFDITNNLSIVILALRPSDEGTYGCVVLEYEKDAFKREHLAEVMLSVKADFPTPSISDFEIPPSNIRRIICSTSGGFPEPHLSWLENGEELNAINTTVSQDPETELYAVSSKLDFNMTTNHSFMCLIKYGHLRANQTFNWNTPKQEHFPDNLLPSWAITLISVNGIFVICCLTYCFAPRCRERRRNERLRRESVRPV was 1
